Task for the reader: assign each of the following variants its reported self-cleavage.
B1: CPEB3 Ribozyme (parent)
chain: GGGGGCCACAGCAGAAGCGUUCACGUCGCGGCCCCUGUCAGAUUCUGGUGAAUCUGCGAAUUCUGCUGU

variants of: B1; test: self-cleavage, relative activity (ratio to wild type); higher = more cleavage; co-transcriptional
Give bare numbers.

Answered cases to consult:
{"columns": ["Residue Change", "self-cleavage"],
 "data": [
  ["U49G U61A", 0.921],
  ["C18G U69A", 0.26],
  ["U38G U43G", 0.213],
  ["G14U U38C", 0.573],
  ["C24G U67A", 0.368]
]}

Required: self-cleavage, one value per variant below.
1. A16G U38C
2. G2C U26G
3. G25U U62C
4. G1A G41U
5. U26A C29G
6. G1C C63U
7. C33A G68U

OUTPUT:
1. 0.665
2. 0.0511
3. 0.193
4. 0.0947
5. 0.307
6. 0.164
7. 0.904

Required: self-cleavage, one value per variant below.
1. C35U G47C
2. C7G U64C
3. A15G C66U
4. U36C C63A

OUTPUT:
0.967
0.17
0.964
0.587
